- experiment.notes: in vitro
- measurement.setup: human, plasma, PPB
Grouping rule (fraction unbound at 5 h): low (below 0.03), mid (0.03 to below 0.1), high (0.1 or more)

[
  {
    "molecule": "Cc1cc(Nc2nc(N[C@@H](C)c3ccc(F)cn3)c(C#N)cc2F)n[nH]1",
    "label.class": "mid"
  },
  {
    "molecule": "CC(C)Oc1ccc2c(=O)c(-c3ccccc3)coc2c1",
    "label.class": "low"
  },
  {
    "molecule": "Nc1ncnc2c1ncn2[C@@H]1O[C@H](CSCCCNC(=O)Nc2ccc(Cl)cc2)[C@@H](O)[C@H]1O",
    "label.class": "mid"
  },
  {
    "molecule": "c1cncc(Nc2ncc(-c3ccncn3)c(-c3ccco3)n2)c1",
    "label.class": "high"
  },
  {
    "molecule": "O=c1[nH]c2c(O)ccc(CCNCCS(=O)(=O)CCCOCCc3ccccc3)c2s1",
    "label.class": "mid"
  },
  {
    "molecule": "CCOc1ccc(NC(C)=O)cc1",
    "label.class": "high"
  },
  {
    "molecule": "O=C1OC2(c3ccc(O)cc3Oc3cc(O)ccc32)c2ccccc21",
    "label.class": "high"
  },
  {
    "molecule": "CN[C@@H](C)C(=O)N[C@H](C(=O)N[C@H]1CCN(C(=O)Cc2ccccc2)C1)C1CCCCC1",
    "label.class": "high"
  },
  {
    "molecule": "CNCCC(Oc1ccccc1OC)c1ccccc1 (centres undefined)",
    "label.class": "high"
  },
  {
    "molecule": "Cc1ccc(S(=O)(=O)Nc2c(C(=O)NC(C)C(C)(C)C)c(C)nn2-c2ccccc2)cc1 (centres undefined)",
    "label.class": "low"
  }
]

Query: Into which category would you place CCN(CC)S(=O)(=O)c1ccc(-c2cc(C(F)(F)F)ccc2OCC(=O)O)cc1 ?
Response: low

Query: Band assignment needed for Cc1cc(Nc2nc(N[C@@H](C)c3ncc(F)cn3)nc(N3CCOCC3)c2Cl)n[nH]1 please.
Response: high

Query: Consider C[C@@]1(c2cc(-c3cncnc3)c(F)cc2F)CCSC(N)=N1 . To which fraction unbound at 5 h class does it belong?
Response: high
